Where do these numbers come from? They come from patent US11332459B2.

TARGET_UNDER_TEST: human TRPC6 (Homo sapiens)
EXPERIMENT_NOTES: TRPC6 calcium flux assay (FLIPR, OAG-stimulated calcium influx)
TEST_PARAMETERS: HEK293 cells stably transfected with human TRPC6, read-out: hTRPC6 Potency
Labelling field: enter MET if recorded IC50 is less than 50 nM. Enter NOT MET if it equals or exceeds that cut-off.

COc1ccc2nc(N3CCC(F)(F)[C@H](N)C3)n(Cc3ccc(C#N)cc3)c2c1
MET
N[C@@H]1CN(c2nc3cc(F)c(F)cc3n2CC(=O)N2CCOCC2)CC[C@H]1F
MET
N#Cc1ccc2c(c1)CC[C@H]2n1c(N2CCC[C@H](N)C2)nc2ccccc21
NOT MET
COc1cnc(Cn2c(N3CC[C@@H](F)[C@H](N)C3)nc3ccccc32)nc1
MET
CN(CC(F)(F)F)C(=O)Cn1c(N2CC[C@@H](F)[C@H](N)C2)nc2ccc(C(F)(F)F)cc21
MET

Input: Lab note: IC50 threshold 50 nM. Does this compound come in strictly under it? `N[C@@H]1CN(c2nc3cc(F)c(F)cc3n2Cc2ccc(C(F)(F)F)cc2)CC[C@H]1F`
Output: NOT MET

Input: Lab note: IC50 threshold 50 nM. Does this compound come in strictly under it? `N[C@@H]1CN(c2nc3cc(F)cc(F)c3n2Cc2ncc(Cl)cn2)CC[C@H]1F`
Output: NOT MET

Input: Lab note: IC50 threshold 50 nM. Does this compound come in strictly under it? `N[C@@H]1CN(c2nc3cc(F)c(F)cc3n2CC(=O)N2CC(F)(F)C2)CC[C@H]1F`
Output: MET

====

TARGET_UNDER_TEST: human TRPC6 (Homo sapiens)
EXPERIMENT_NOTES: TRPC6 calcium flux assay (FLIPR, OAG-stimulated calcium influx)
TEST_PARAMETERS: HEK293 cells stably transfected with human TRPC6, read-out: hTRPC6 Potency
Where a name gives a salt, the structure may show the parent alone.
Labelling field: enter MET if recorded IC50 is less than 2 nM. Enter NOT MET if it equals or exceeds that cut-off.

CN(CC(F)(F)F)C(=O)Cn1c(N2CCC(F)(CN)C2)nc2cc(F)ccc21 (centres unmarked)
NOT MET
N[C@@H]1CN(c2nc3cc(F)c(F)cc3n2Cc2cccc3ncccc23)CC[C@H]1F
NOT MET
COc1ccc2nc(N3CC[C@@H](F)[C@H](N)C3)n(Cc3ccc(C#N)cn3)c2c1 [Example 146, hydrochloride]
MET
N#Cc1ccc(Cn2c(N3CC[C@H](F)[C@H](N)C3)nc3ccc(C#N)cc32)nc1
MET
CCC1COCCN1C(=O)Cn1c(N2CC[C@@H](F)[C@H](N)C2)nc2ccc(F)cc21 (some centres unmarked)
NOT MET
N#Cc1ccc(Cn2c(N3CC[C@@H](F)[C@H](N)C3)nc3cc(OC(F)(F)F)ccc32)nc1
MET
N[C@@H]1CN(c2nc3cc(F)c(F)cc3n2CC(=O)N2CCN3C(=O)OCC3C2)CC[C@H]1F (some centres unmarked)
NOT MET

Now turn to the next compound.
Input: Lab note: IC50 threshold 2 nM. Does this compound come in strictly under it? `Cc1nc(Cn2c(N3CC[C@@H](F)[C@H](N)C3)nc3cc(F)c(F)cc32)no1`
Output: NOT MET

====

For each record, write down the corresponding IC50.
TARGET_UNDER_TEST: human TRPC6 (Homo sapiens, UniProt Q9Y210)
EXPERIMENT_NOTES: TRPC6 calcium flux assay (FLIPR, OAG-stimulated calcium influx)
TEST_PARAMETERS: HEK293 cells stably transfected with human TRPC6, read-out: hTRPC6 Potency
Where a name gives a salt, the structure may show the parent alone.
Give bare numbers, in nM.

For each entry beneath this line, provide reported IC50.
1. N[C@@H]1CN(c2nc3cc(F)c(F)cc3n2Cc2ccc(OC(F)(F)F)cc2)CC[C@H]1F
2. N#Cc1ccc(Cn2c(N3CC[C@@H](F)[C@H](N)C3)nc3ccc(C#N)cc32)nc1
3. CN(C)C(=O)Cn1c(N2CC[C@H](F)[C@H](N)C2)nc2cc(Cl)ccc21

Output:
[256, 1.52, 360]

For each entry beneath this line, provide reported IC50.
1. C[C@H](c1cccc(Cl)c1)n1c(N2CC[C@@H](F)[C@H](N)C2)nc2cc(F)c(F)cc21
2. Cn1ncc2cccc(Cn3c(N4CC[C@@H](F)[C@H](N)C4)nc4cc(F)c(F)cc43)c21

Output:
1: 2930; 2: 217

For each entry beneath this line, provide reported IC50.
1. CC(c1ccccn1)N(C)C(=O)Cn1c(N2CC[C@@H](F)[C@H](N)C2)nc2cc(F)c(F)cc21 (mixture of isomers) [Example 608]
2. CS(=O)(=O)c1ccc2c(c1)nc(N1CC[C@@H](F)[C@H](N)C1)n2Cc1ccc(Cl)cn1
3. N#Cc1cnc(Cn2c(N3CCC(F)(F)[C@H](N)C3)nc3cc(Cl)ccc32)cn1
4. N[C@@H]1CN(c2nc3cc(F)c(F)cc3n2Cc2cccc(OC(F)(F)F)c2)CC[C@H]1F
5. CC[C@H](c1ccc(C#N)cn1)n1c(N2CCC[C@H](N)C2)nc2ccccc21 [Example 299, hydrochloride]

Output:
[18.3, 1940, 26.9, 1020, 8.76]

====

TARGET_UNDER_TEST: human TRPC6 (Homo sapiens)
EXPERIMENT_NOTES: TRPC6 calcium flux assay (FLIPR, OAG-stimulated calcium influx)
TEST_PARAMETERS: HEK293 cells stably transfected with human TRPC6, read-out: hTRPC6 Potency
Counter-ions that a name gives are not always drawn.
For each record, write down the corresponding IC50.
Numbers only, in nM.

N[C@@H]1CN(c2nc3cc(F)c(F)cc3n2Cc2noc(C3CC3)n2)CC[C@H]1F
251

For each entry beneath this line, provide reported IC50.
1. COc1ccc2c(c1)nc(N1CC[C@@H](F)[C@H](N)C1)n2Cc1ccc(C#N)cn1 [Example 145, hydrochloride]
2. C[C@H]1COCCN1C(=O)Cn1c(N2CC[C@@H](F)[C@H](N)C2)nc2ccc(F)cc21
3. Cc1ccc2c(c1)nc(N1CC[C@@H](F)[C@H](N)C1)n2Cc1ccc(C#N)cn1
4. Cc1cc2nc(N3CC[C@@H](F)[C@H](N)C3)n(Cc3ccc(C#N)cn3)c2cc1F
5. C[C@@H](c1ccc(F)cc1F)n1c(N2CC[C@@H](F)[C@H](N)C2)nc2cc(F)c(F)cc21
6. N#Cc1ccc(Cn2c(N3CCC[C@H](N)C3)nc3ccccc32)nc1
7. N[C@@H]1CN(c2nc3cc(F)c(F)cc3n2Cc2c(Cl)cccc2Cl)CC[C@H]1F
8. C[C@@H](c1ccc(Cl)cn1)n1c(N2CC[C@@H](F)[C@H](N)C2)nc2ccccc21 [Example 216, hydrochloride]

Output:
14
98.3
1.23
0.382
204
2.32
2860
11.4

====

For each record, write down the corresponding pIC50.
TARGET_UNDER_TEST: human TRPC6 (Homo sapiens)
Sequence (Q9Y210 1-931): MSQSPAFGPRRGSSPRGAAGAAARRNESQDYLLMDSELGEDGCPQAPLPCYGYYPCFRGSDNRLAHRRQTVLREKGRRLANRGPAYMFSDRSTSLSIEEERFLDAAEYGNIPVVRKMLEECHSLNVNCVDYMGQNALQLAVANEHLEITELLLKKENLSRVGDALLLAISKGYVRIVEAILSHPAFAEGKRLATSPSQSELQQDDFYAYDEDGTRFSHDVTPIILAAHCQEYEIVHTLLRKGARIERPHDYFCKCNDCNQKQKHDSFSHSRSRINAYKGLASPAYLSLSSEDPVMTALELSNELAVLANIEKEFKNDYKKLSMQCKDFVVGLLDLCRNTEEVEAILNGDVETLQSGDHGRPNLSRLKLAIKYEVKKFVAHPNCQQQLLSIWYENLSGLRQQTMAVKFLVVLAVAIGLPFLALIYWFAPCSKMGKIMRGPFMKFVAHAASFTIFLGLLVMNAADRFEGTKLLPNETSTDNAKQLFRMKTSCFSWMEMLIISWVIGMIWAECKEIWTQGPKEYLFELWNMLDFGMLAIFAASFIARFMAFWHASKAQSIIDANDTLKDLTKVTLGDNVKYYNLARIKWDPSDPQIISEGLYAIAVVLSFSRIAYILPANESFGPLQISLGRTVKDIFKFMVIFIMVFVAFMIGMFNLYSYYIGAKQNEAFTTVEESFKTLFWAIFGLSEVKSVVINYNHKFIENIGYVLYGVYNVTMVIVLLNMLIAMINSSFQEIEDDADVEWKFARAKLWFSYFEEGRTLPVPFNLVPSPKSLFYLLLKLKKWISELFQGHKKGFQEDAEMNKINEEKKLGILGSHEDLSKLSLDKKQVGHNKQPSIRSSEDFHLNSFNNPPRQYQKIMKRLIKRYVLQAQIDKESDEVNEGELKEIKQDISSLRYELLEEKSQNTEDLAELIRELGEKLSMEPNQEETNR
EXPERIMENT_NOTES: TRPC6 calcium flux assay (FLIPR, OAG-stimulated calcium influx)
TEST_PARAMETERS: HEK293 cells stably transfected with human TRPC6, read-out: hTRPC6 Potency
Where a name gives a salt, the structure may show the parent alone.
Answers are plain numbers, as −log10 of the molar value.

N#C[C@H]1CCCN1C(=O)Cn1c(N2CC[C@@H](F)[C@H](N)C2)nc2cc(F)c(F)cc21
6.49

For each entry beneath this line, provide reported pIC50.
1. COc1cccc2c1nc(N1CCC(F)(F)[C@H](N)C1)n2Cc1ccc(C#N)cc1
2. COc1cccc2c1nc(N1CC[C@@H](F)[C@H](N)C1)n2Cc1ccc(C#N)cn1
3. N#Cc1ccc(Cn2c(N3CCC[C@H](N)C3)nc3cccnc32)cc1 [Example 419, hydrochloride]
4. COCCN(C)C(=O)Cn1c(N2CC[C@@H](F)[C@H](N)C2)nc2ccc(F)cc21

Output:
1: 7.98; 2: 8.49; 3: 6.89; 4: 6.53

For each entry beneath this line, provide reported pIC50.
1. N#Cc1ccc(Cn2c(N3CC[C@@H](F)[C@H](N)C3)nc3cc(OC(F)F)ccc32)nc1
2. N[C@@H]1CN(c2nc3cc(F)c(F)cc3n2Cc2ccc(F)c(Cl)c2)CC[C@H]1F
3. N[C@@H]1CN(c2nc3c(F)cc(F)cc3n2Cc2nnc(C(F)F)s2)CC[C@H]1F
4. N#Cc1ccc(Cn2c(N3CC[C@@H](F)[C@H](N)C3)nc3cc(F)c(C(F)(F)F)cc32)nc1
5. N#Cc1ccc(Cn2c(N3CCC4CCN[C@@H]4C3)nc3ccccc32)nc1 (stereo partly shown)

Output:
1. 8.71
2. 6.67
3. 7.89
4. 8.79
5. 6.68

For each entry beneath this line, provide reported pIC50.
1. N#Cc1ccc(Cn2c(N3CC[C@H](CN)C3)nc3ccccc32)cc1
2. N[C@@H]1CCCN(c2nc3ccccc3n2Cc2cc(-c3cccc(Cl)c3)no2)C1
3. CCNC(=O)Cn1c(N2CC[C@@H](F)[C@H](N)C2)nc2cc(F)c(F)cc21
4. CC1CN(c2nc3ccc(F)cc3n2CC(=O)N(C)CC(F)(F)F)CC1N (stereo not shown)

Output:
1: 6.49; 2: 5.65; 3: 6.82; 4: 5.92
